System: Vero E6 infected with SARS-CoV-2
experiment.description: morphology score (similarity to uninfected cells); higher = more like uninfected cells
measurement.setup: 24 h
measured.quantity: morphology score
I'd appreciate a reply containing only the number, no unit.

Need morphology score, item C[C@H]1c2cccc(O)c2C(=O)C2=C(O)[C@]3(O)C(=O)C(C(N)=O)=C(O)[C@@H](N(C)C)[C@@H]3[C@@H](O)[C@@H]21 [doxycycline] (10 µM)
0.0783

Need morphology score, item C[C@@H](O[C@H]1OCCN(Cc2nn[nH]c2CN(C)C)[C@H]1c1ccc(F)cc1)c1cc(C(F)(F)F)cc(C(F)(F)F)c1 (10 µM)
0.43

Need morphology score, item N=C(N)NCCCC[C@@H]1NC(=O)CCSSC[C@@H](C(N)=O)NC(=O)[C@@H]2CCCN2C(=O)[C@H](Cc2c[nH]c3ccccc23)NC(=O)[C@H](CC(=O)O)NC(=O)CNC1=O [eptifibatide] (10 µM)
-0.125

----------
System: Vero E6 infected with SARS-CoV-2
experiment.description: inhibition of SARS-CoV-2 cytopathic effect; higher = more antiviral protection, active = above 15
measurement.setup: 8.33 nM; 48 h
measured.quantity: inhibition of SARS-CoV-2 cytopathic effect

Need inhibition of SARS-CoV-2 cytopathic effect, item O=C(NC(NC(=S)Nc1ccc(F)c([N+](=O)[O-])c1)C(Cl)(Cl)Cl)C(c1ccccc1)c1ccccc1 (stereo not drawn)
-2.75% (inactive)

Need inhibition of SARS-CoV-2 cytopathic effect, item C=CC1=C(C)c2cc3[nH]c(cc4nc(cc5[nH]c(cc1n2)c(C)c5CCC(=O)O)C(CCC(=O)O)=C4C)c(C)c3C=C [protoporphyrin-IX]
-0.99% (inactive)

Need inhibition of SARS-CoV-2 cytopathic effect, item CN1C(C(=O)Nc2ccccn2)=C(O)c2ccccc2S1(=O)=O [piroxicam]
-0.73% (inactive)

Need inhibition of SARS-CoV-2 cytopathic effect, item Cc1ccc(-c2ncc[nH]2)cc1NC(=O)c1ccc(OCc2ccccn2)cc1
-0.95% (inactive)

Need inhibition of SARS-CoV-2 cytopathic effect, item CC[N+](CC)(CC(=O)Nc1c(C)cccc1C)Cc1ccccc1 [denatonium-benzoate]
-3.36% (inactive)

Need inhibition of SARS-CoV-2 cytopathic effect, item CCCCOC(=O)c1ccccc1Nc1cccc(C(F)(F)F)c1 [ufenamate]
2.78% (inactive)

Need inhibition of SARS-CoV-2 cytopathic effect, item C[C@@H](NC(=O)c1ncnc(N)c1Cl)c1ncc(C(=O)Nc2cc(C(F)(F)F)c(Cl)cn2)s1
6.23% (inactive)

Need inhibition of SARS-CoV-2 cytopathic effect, item COc1cccc(N(C)C(=S)Oc2ccc3c(c2)CCCC3)n1 [liranaftate]
1.62% (inactive)

Need inhibition of SARS-CoV-2 cytopathic effect, item CCCC(=O)C1(c2ccccc2)CCN(C(=O)[C@@H](Cc2ccc(OC)cc2)NC(=O)[C@@H](N)Cc2cncn2C)CC1
-1.21% (inactive)

Need inhibition of SARS-CoV-2 cytopathic effect, item CC(C)Oc1ccc(-c2nc(-c3cccc4c3CC[C@@H]4NCCO)no2)cc1C#N [ozanimod]
-0.27% (inactive)

Need inhibition of SARS-CoV-2 cytopathic effect, item NC(Cc1ccc(I)cc1)C(=O)O (stereo in doubt) [4-iodo-L-phenylalanine]
-0.66% (inactive)

Need inhibition of SARS-CoV-2 cytopathic effect, item COc1c(N2CCNC(C)C2)c(F)cc2c(=O)c(C(=O)O)cn(C3CC3)c12 (stereo not drawn) [gatifloxacin]
1.9% (inactive)

Need inhibition of SARS-CoV-2 cytopathic effect, item CCc1cccc(CC)c1NC(=O)CN(CC(=O)O)CC(=O)O [etifenin]
1.39% (inactive)

Need inhibition of SARS-CoV-2 cytopathic effect, item O=C(O)c1cn(C2CC2)c2cc(N3CCNCC3)c(F)cc2c1=O [ciprofloxacin]
-1.59% (inactive)

Need inhibition of SARS-CoV-2 cytopathic effect, item COc1ccccc1CN[C@H]1CCCN[C@H]1c1ccccc1
-1.96% (inactive)

Need inhibition of SARS-CoV-2 cytopathic effect, item CN1CC(=O)N=C1NC(=O)Nc1cccc(Cl)c1 [fenobam]
2.12% (inactive)

Need inhibition of SARS-CoV-2 cytopathic effect, item Fc1ccc2c(CCNCc3cccc(OCC(F)(F)C(F)F)c3)c[nH]c2c1 [idalopirdine]
0.96% (inactive)

Need inhibition of SARS-CoV-2 cytopathic effect, item O=C(N[C@H]1CN2CCC1CC2)c1ccc(Cl)cc1
0.97% (inactive)

Need inhibition of SARS-CoV-2 cytopathic effect, item CCCCNc1nc(N)c2[nH]c(=O)n(Cc3ccc(OCCN(C)C)nc3)c2n1
0.48% (inactive)

Need inhibition of SARS-CoV-2 cytopathic effect, item COc1cccc(OC)c1-c1ccc(C[C@H](NC(=O)c2c(Cl)cccc2Cl)C(=O)O)cc1
2% (inactive)

Need inhibition of SARS-CoV-2 cytopathic effect, item O=C(/C=C/c1ccc(O)c(O)c1)O[C@@H]1C[C@](O)(C(=O)O)C[C@@H](O)[C@H]1O [chlorogenic-acid]
1.67% (inactive)

Need inhibition of SARS-CoV-2 cytopathic effect, item Cc1nnc(-c2ccc3occ(-c4ccc([S+](C)[O-])cc4)c3c2)o1 (stereo not drawn)
0.11% (inactive)

Need inhibition of SARS-CoV-2 cytopathic effect, item CN(CCOP(=O)(O)O)C(=N)N [creatinol-phosphate]
2.42% (inactive)

Need inhibition of SARS-CoV-2 cytopathic effect, item COc1cc(Nc2nc3ccccc3nc2NS(=O)(=O)c2ccc(NC(=O)c3ccc(C)c(OC)c3)cc2)cc(OC)c1
4.37% (inactive)

Need inhibition of SARS-CoV-2 cytopathic effect, item O=S(=O)(c1ccccc1)N(CC(F)(F)F)c1ccc(C(O)(C(F)(F)F)C(F)(F)F)cc1
0.95% (inactive)

Need inhibition of SARS-CoV-2 cytopathic effect, item CNCCC=C1c2ccccc2CCc2ccccc21 [nortriptyline]
-0.85% (inactive)

Need inhibition of SARS-CoV-2 cytopathic effect, item O=S(=O)(O)c1ccc(O)cc1 [4-phenolsulfonic-acid]
0.25% (inactive)

Need inhibition of SARS-CoV-2 cytopathic effect, item CS(=O)(=O)n1cc2c(n1)CN([C@H]1CO[C@H](c3cc(F)ccc3F)[C@@H](N)C1)C2 [omarigliptin]
1.81% (inactive)

Need inhibition of SARS-CoV-2 cytopathic effect, item COC(=O)C1=C(C)NC(C)=C(C(=O)NCCCN2CCC(c3ccccc3)(c3ccccc3)CC2)C1c1ccc([N+](=O)[O-])cc1 (stereo not drawn)
1.95% (inactive)

Need inhibition of SARS-CoV-2 cytopathic effect, item C#CCN[C@@H]1CCc2ccccc21 [rasagiline]
-1.47% (inactive)

Need inhibition of SARS-CoV-2 cytopathic effect, item C[C@](N)(Cc1ccc(O)c(O)c1)C(=O)O [methyldopa]
0.87% (inactive)

Need inhibition of SARS-CoV-2 cytopathic effect, item CCCCC1CCC(c2nc(-c3ccncc3)no2)CC1 (stereo not drawn)
0.82% (inactive)

Need inhibition of SARS-CoV-2 cytopathic effect, item C[N+]1(C)CCC(OC(=O)C(c2ccccc2)c2ccccc2)CC1
2.05% (inactive)

Need inhibition of SARS-CoV-2 cytopathic effect, item Nc1ncnc2c1c(-c1cnc3[nH]ccc3c1)nn2C1CCCC1
-0.16% (inactive)

Need inhibition of SARS-CoV-2 cytopathic effect, item Cc1cc(I)ccc1Nc1c(C(=O)NOCC2CC2)cc(F)c(F)c1F
5.24% (inactive)

Need inhibition of SARS-CoV-2 cytopathic effect, item CC1=CC(=C(c2ccc(N)cc2)c2ccc(N)cc2)C=CC1=N [basic-fuchsin]
0.35% (inactive)

Need inhibition of SARS-CoV-2 cytopathic effect, item CCOP(=S)(OCC)Oc1cc(C)nc(C(C)C)n1 [dimpylate]
-0.54% (inactive)

Need inhibition of SARS-CoV-2 cytopathic effect, item Nc1ccc(S(=O)(=O)c2ccc(N)cc2)cc1 [dapsone]
2.16% (inactive)

----------
What inhibition of SARS-CoV-2 cytopathic effect was measured for each of the following?
Test system: Vero E6 infected with SARS-CoV-2
experiment.description: inhibition of SARS-CoV-2 cytopathic effect; higher = more antiviral protection, active = above 15
measurement.setup: 10000 nM; 48 h
Give your result in % as a bare value.

Need inhibition of SARS-CoV-2 cytopathic effect, item Cc1ccccc1N(C)C(=O)c1ccc([S+]([O-])c2nccs2)c([N+](=O)[O-])c1 (centres undefined)
12.2

Need inhibition of SARS-CoV-2 cytopathic effect, item COc1c(C)cnc(Cn2cc(C#CCC(C)(C)O)c3c(Cl)nc(N)nc32)c1C
-7.6

Need inhibition of SARS-CoV-2 cytopathic effect, item COc1ccccc1C(=O)Nc1cccc(NC(=O)c2cccc(C)c2)c1
1.77

Need inhibition of SARS-CoV-2 cytopathic effect, item O=C(Cn1c(=O)sc2ccc(Cl)cc21)N1CCN(CCO)CC1 [tiaramide]
2.14

Need inhibition of SARS-CoV-2 cytopathic effect, item O=C(O)C(=O)CBr [3-bromopyruvate]
1.43

Need inhibition of SARS-CoV-2 cytopathic effect, item CCn1c2ccccc2c2cc(Nc3ccnc(NCCCN4CCOCC4)n3)ccc21
69.3

Need inhibition of SARS-CoV-2 cytopathic effect, item N#Cc1ccccc1-c1cc(-c2ccccn2)cn(-c2ccccc2)c1=O [Perampanel]
-5.2

Need inhibition of SARS-CoV-2 cytopathic effect, item CC(C)(CCCCCC(O)CCCCCC(C)(C)C(=O)O)C(=O)O [bempedoic-acid]
1.16

Need inhibition of SARS-CoV-2 cytopathic effect, item Cc1ccc(S(=O)(=O)NC(=O)NN2CC3CCCC3C2)cc1 (centres undefined) [gliclazide]
2.6

Need inhibition of SARS-CoV-2 cytopathic effect, item N#Cc1ccc(N2CCN(C(=O)COc3ccc4[nH]cc(CCN)c4c3)CC2)cc1 [donitriptan]
1.77

Need inhibition of SARS-CoV-2 cytopathic effect, item O=C(OCC(COC(=O)c1cccnc1)(COC(=O)c1cccnc1)COC(=O)c1cccnc1)c1cccnc1 [niceritrol]
6.17

Need inhibition of SARS-CoV-2 cytopathic effect, item C=C1CC/C=C(\C)CC[C@@H]2[C@@H]1CC2(C)C [g-caryophyllene]
1.88

Need inhibition of SARS-CoV-2 cytopathic effect, item CCC(CC)CC1(C(=O)Nc2ccccc2SC(=O)C(C)C)CCCCC1 [dalcetrapib]
-2.5

Need inhibition of SARS-CoV-2 cytopathic effect, item CC(C)(N)c1nc(-c2ccc(OC(F)(F)F)cc2)c[nH]1
-2.65

Need inhibition of SARS-CoV-2 cytopathic effect, item CCC(=O)OCC(=O)[C@@]1(OC(=O)CC)[C@H](C)C[C@H]2[C@H]3[C@H]([C@@H](O)C[C@@]21C)[C@@]1(C)C=CC(=O)C=C1C[C@H]3Cl [alclometasone-dipropionate]
-2.92

Need inhibition of SARS-CoV-2 cytopathic effect, item CN1C[C@@H]2CN(c3ccc(-c4ccccc4)nn3)C[C@@H]2C1
-3.37

Need inhibition of SARS-CoV-2 cytopathic effect, item Cc1c(Cl)cccc1S(=O)(=O)Nc1nc(NCCc2ccccc2)nc2c1CN(Cc1ccccc1)CC2
-1.37

Need inhibition of SARS-CoV-2 cytopathic effect, item NCC(=O)Nc1ccc(-n2nc(C(F)(F)F)cc2-c2ccc3c(ccc4ccccc43)c2)cc1
-3.56

Need inhibition of SARS-CoV-2 cytopathic effect, item Cc1cc(-c2ccccc2)nnc1NCCN1CCOCC1 [minaprine]
1.01
